- system tested: human A1 adenosine receptor (Homo sapiens)
- Construct: gene ADORA1; full-length receptor
- test: radioligand competition, [3H]DPCPX, CHO-A1 membranes
- Format: binding
reported endpoint: inhibition at 10 µM (%)

Cn1cnc2c(N3CCOCC3)nc(-c3ccccc3Cl)nc21 ... 36
Cn1cnc2c(N3CCOCC3)nc(-c3ccc(Cl)cc3)nc21 ... 37
Cn1cnc2c(N3CCOCC3)nc(-c3cc(Cl)ccc3Cl)nc21 ... 41

(a) Cn1cnc2c(N3CCOCC3)nc(-c3cccc(O)c3O)nc21
(b) COc1ccccc1-c1nc(N2CCOCC2)c2ncn(C)c2n1
Input pair: a , b . Output: entry with lower inhibition at 10 µM. Write down the label attached to your selection.
b
(b: 22%, a: 33%)

====

- system tested: human A1 adenosine receptor (Homo sapiens, UniProt P30542)
- Construct: gene ADORA1; full-length receptor
- test: radioligand competition, [3H]DPCPX, CHO-A1 membranes
- Assay type: binding
- assay setup: read-out: A1 (converted)
reported endpoint: Ki (nM)

Clc1ccc(-c2nc(N3CCOCC3)c3nc[nH]c3n2)cc1 ... 95.5
Clc1cccc(-c2nc(N3CCOCC3)c3nc[nH]c3n2)c1 ... 17.8
Oc1ccc(Cl)cc1-c1nc(N2CCOCC2)c2nc[nH]c2n1 ... 89.1

(P) Clc1ccc(Cl)c(-c2nc(N3CCOCC3)c3nc[nH]c3n2)c1
(Q) Cn1cnc2c(N3CCOCC3)nc(-c3cc(Cl)ccc3O)nc21
Input pair: P , Q . Output: entry with lower Ki. Write down the label attached to your selection.
Q

====

- system tested: human A1 adenosine receptor (Homo sapiens, UniProt P30542)
- Construct: gene ADORA1; full-length receptor
- Sequence (P30542 1-326): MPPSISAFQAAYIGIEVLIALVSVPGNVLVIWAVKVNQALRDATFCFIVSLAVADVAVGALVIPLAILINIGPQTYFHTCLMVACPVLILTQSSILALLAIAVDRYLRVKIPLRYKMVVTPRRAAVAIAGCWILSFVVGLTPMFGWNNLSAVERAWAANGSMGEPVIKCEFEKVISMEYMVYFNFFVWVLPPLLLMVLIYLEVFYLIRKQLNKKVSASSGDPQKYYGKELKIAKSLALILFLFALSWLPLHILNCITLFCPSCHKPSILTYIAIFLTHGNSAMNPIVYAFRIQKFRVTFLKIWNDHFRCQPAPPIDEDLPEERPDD
- test: radioligand competition, [3H]DPCPX, CHO-A1 membranes
- Format: binding
- assay setup: read-out: A1 (converted)
reported endpoint: Ki (nM)

A selection of reference data follows.
Fc1ccc(F)c(-c2nc(N3CCOCC3)c3nc[nH]c3n2)c1 [3x] ... 5.89
Cn1cnc2c(N3CCOCC3)nc(-c3ccccc3O)nc21 [3c] ... 309
Cn1cnc2c(N3CCOCC3)nc(-c3cccc(O)c3)nc21 [3e] ... 692
COc1ccc(O)c(-c2nc(N3CCOCC3)c3ncn(C)c3n2)c1 [3j] ... 525
Oc1cccc(-c2nc(N3CCOCC3)c3nc[nH]c3n2)c1 [3p, 3-(6-Morpholino-9H-purin-2-yl)phenol] ... 32.4

(P) Cn1cnc2c(N3CCOCC3)nc(-c3cccc(Cl)c3)nc21 [3d]
(Q) Cn1cnc2c(N3CCOCC3)nc(-c3cc(O)ccc3O)nc21 [3i]
(R) Oc1ccccc1-c1nc(N2CCOCC2)c2nc[nH]c2n1 [3n, 2-(6-Morpholino-9H-purin-2-yl)phenol]
Place the items in sequence of falling Ki. // list labels; follow requested order
Q, P, R
(Q: 437 nM, P: 158 nM, R: 64.6 nM)

====

Protein target, amino acids: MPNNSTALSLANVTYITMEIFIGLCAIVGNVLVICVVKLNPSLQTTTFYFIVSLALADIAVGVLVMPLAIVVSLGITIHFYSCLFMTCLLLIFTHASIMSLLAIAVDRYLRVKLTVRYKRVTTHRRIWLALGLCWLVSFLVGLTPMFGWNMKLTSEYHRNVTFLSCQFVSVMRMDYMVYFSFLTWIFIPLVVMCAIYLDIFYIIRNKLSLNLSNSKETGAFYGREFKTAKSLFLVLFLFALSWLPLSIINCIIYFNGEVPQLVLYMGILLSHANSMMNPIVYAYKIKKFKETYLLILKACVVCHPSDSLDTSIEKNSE
reported endpoint: Ki (nM)

COc1ccc(F)c(-c2nc(N3CCOCC3)c3nc[nH]c3n2)c1 ... 14.8
Clc1ccc(-c2nc(N3CCOCC3)c3nc[nH]c3n2)cc1Cl ... 70.8

(a) Clc1ccc(-c2nc(N3CCOCC3)c3nc[nH]c3n2)cc1
(b) Clc1ccc(Cl)c(-c2nc(N3CCOCC3)c3nc[nH]c3n2)c1
(c) Oc1ccccc1-c1nc(N2CCOCC2)c2nc[nH]c2n1
In this exercise, place the 3 molecules in ascending sequence of their recorded Ki. // list labels; follow requested order
a, b, c
(a: 33.9 nM, b: 69.2 nM, c: 257 nM)
